- Test system: SNB-78 CNS
- assay-overview: NCI tumour cell line growth inhibition, 48 h
readout-type: TGI (µM)
Output spec: scalar in µM, unitless text.

# lookup: TGI of O=C(N[C@H]1CC2(C=C(I)C(=O)C(I)=C2)OC1=O)OCc1ccccc1
33.5

Dear colleague, I am looking for the recorded TGI of the following molecule: O=c1c2ccccc2n2nnc3ccc(NCCNCCO)c1c32
27.6

Could you share which TGI value was measured for COc1cc([C@H]2c3cc4c(cc3[C@H](NCc3ccc(F)cc3)C3COC(=O)[C@H]32)OCO4)cc(OC)c1O (some centres not stated) ?
78

====

- System: LOX IMVI melanoma
- assay-overview: NCI tumour cell line growth inhibition, 48 h
readout-type: TGI (µM)
// note: answer is a bare numeric in µM

// TGI lookup, key: O=C(/C=C/c1ccccn1)c1ccccc1
3.08

Which TGI is listed for CC1(c2ccc(Cl)cc2)c2ccccc2C(=O)N1CCCN1C(=O)c2ccccc2C1=O (configuration not stated) ?
47.5

Would you mind telling me what TGI value was observed for CCCCCCC1CCCCN1C(c1ccccc1)C(O)c1ccccc1 (configuration not stated) ?
12.4

Data request, read-out TGI, for CC(C)(C)OC(=O)CC(S(=O)(=O)c1ccccc1)S(=O)(=O)c1ccccc1
33.2

What TGI value was documented for this molecule, O=C(CN1CCCC1)Nc1ccc2c(c1)C1Oc3ccccc3CC1CO2 (configuration not stated) ?
44.5

Need TGI of CCN(CCCl)c1cc(CN(C)C)cc(NC(=O)c2ccc(C(=O)Nc3cccc(N(CCCl)NN)c3)cc2)c1 , thanks.
0.034

// TGI lookup, key: CCCC/C=C1/CCC(CN(C)C)C1=O (configuration not stated)
2.91

Tell me the measured TGI of COc1ccc(-c2nc3sccn3c2/C=C/C(=O)c2cc(OC)c(OC)c(OC)c2)cc1 , please.
6.59

What value of TGI has been recorded for this entry: CC1CC(C)(C)CC(OCCN2CCCCC2)(c2ccccc2)C1 (configuration not stated)
21.3

GET /values?readout=TGI&item= Oc1ccccc1/C=N/c1nc(-c2ccccc2)cs1
46.9
